Kindly state Increase for each of the entries shown.
System: Mustela putorius furo
Assay: The compound was evaluated for the percentage increase in the emetic latency period to first emetic episode against cisplatin induced emesis in ferret (intravenous administration)
Format: functional
Answers are plain numbers, in %.

Example compounds with recorded Increase:
* O=C(NCCc1c[nH]cn1)c1cc(Cl)cc2c1OC1CCCCC21 (centres undefined) | 27.6
* O=C(NCCN1CCOCC1)c1cc(Cl)cc2c1OC1CCCCC21 (centres undefined) | 110.9
* CCN(CC)CCNC(=O)c1cc(Cl)cc2c1OC1CCCCC21 (centres undefined) | 6.5

The record that follows has no Increase shown yet.
For CN1CCCC1CCNC(=O)c1cc(Cl)cc2c1OC1CCCCC21 (centres undefined) , what is its reported Increase? -0.9

---

Kindly state ED50 for each of the entries shown.
System: Mustela putorius furo
Assay: Antiemetic potency against cisplatin-induced emetic episodes in ferret after intravenous administration
Type: functional
Numbers only, in µg/kg.

Example compounds with recorded ED50:
- O=C(NC1CN2CCC1CC2)c1cc(Cl)cc2c1OC1CCCCC21 (centres undefined): 6
- Cc1nccn1CC1CCc2c(c3ccccc3n2C)C1=O (centres undefined): 8
- O=C(N[C@@H]1CN2CCC1CC2)c1cc(Cl)cc2c1O[C@H]1CCCC[C@@H]21: 4

The record that follows has no ED50 shown yet.
For O=C(N[C@@H]1CN2CCC1CC2)c1cc(Cl)cc2c1O[C@H]1CCC[C@@H]2C1 , what is its reported ED50? 9
